- System: MDA-MB-468 breast
- protocol.description: NCI-60 one-dose screen, 48 h (100 = growth as untreated, 0 = no growth, -100 = all killed)
- condition.context: 10 µM unless noted
The panel holds about 83,000 compounds, 20% with a hit somewhere; the sample as a whole holds those more often. Activity calls are given as the source filed them. How the source made its calls: active means growth percent below 10; inactive means the rest.
As shown below, each of these molecules has a reported growth value.

Some molecules with known growth results, for comparison:
molecule: CC(CN1CCCCC1)C(=O)c1ccccc1 (configuration not stated)
growth: 105% (inactive)
//
molecule: NC(=O)c1cccc(-n2ccc3cc(NC(=O)Nc4cc(C(F)(F)F)cc(C(F)(F)F)c4)ccc32)n1
growth: 40.7% (inactive)
//
molecule: Oc1cccnc1CN1CCCC1
growth: 104% (inactive)
//
molecule: NS(=O)(=O)c1ccc(N2Cc3cc(Cl)ccc3OC3=C2C(=O)N(CC2CCCCC2)C3=O)cc1
growth: -81.1% (active)
//
molecule: COc1ccc2[nH]cc(-c3nc(-c4c[nH]c5c(Cl)nccc45)cs3)c2c1
growth: 34.1% (inactive)

Provide measured growth value, entry: CC(C)C(=O)Nc1ccc(-c2nc(-c3cccc(O)c3)c(-c3ccnc(Br)c3)[nH]2)cc1 15.1% (inactive)

Provide measured growth value, entry: NC(=N\N=C\c1ccccc1O)/C(N)=N/N=C/c1ccccc1O 74% (inactive)

Provide measured growth value, entry: CCc1ccc(C2=C(O)C(=O)C(c3ccc(CC)cc3)=C(O)C2=O)cc1 -2.72% (active)

Provide measured growth value, entry: CCC(CC)C(=O)OC(C)COc1ccc(C(C)(C)C)cc1 (configuration not stated) 94.6% (inactive)

Provide measured growth value, entry: O=C(O)COc1ccc2c(=O)c3sc4c(=O)c5ccccc5c(=O)c4c3c(=O)c2c1 26.4% (inactive)

Provide measured growth value, entry: O=C(Cn1cc[n+](CC(=O)c2ccc(-c3ccccc3)cc2)c1)Nc1cccc2cccnc12 8.42% (active)

Provide measured growth value, entry: CCOC(=O)C1=C(C)N=C2SC=C(c3ccccc3)N2[C@H]1c1cn[nH]c1-c1ccc(Cl)cc1 22.4% (inactive)

Provide measured growth value, entry: O=C(N/N=C/c1ccc(O)cc1O)c1cccc(Nc2ccnc(C(F)(F)F)c2)c1 43.1% (inactive)

Provide measured growth value, entry: CCOC(=O)n1cc(-c2nonc2-c2cn(C)c3ncccc23)c2ccccc21 -8.56% (active)

Provide measured growth value, entry: Cn1ccnc1C(=O)/C=C/c1ccc(CC(=O)Nc2cc(F)c(F)c(F)c2)cc1 -23.4% (active)

---

- Tested on: MDA-MB-468 breast
- protocol.description: NCI-60 one-dose screen, 48 h
- condition.context: 10 µM unless noted
This is part of a sample that, as a whole, favours compounds with a hit. Of some 83,000 tested, about 20% had one in any assay. Activity calls are given as the source filed them. How the source made its calls: active means growth percent below 10; inactive means the rest.
Write down the outcome that applies. Available outcomes: active, inactive

compound: Cc1cc2nc(CN)[nH]c2cc1C
study.target: MDA-MB-468 breast
group: inactive
//
compound: COc1ccc(-c2cc(Cc3cccs3)c(=O)n(Cn3cncn3)n2)cc1
study.target: MDA-MB-468 breast
group: inactive
//
compound: CCCCc1nc(/C=N/Nc2nc(Nc3ccccc3)nc(Nc3ccc(S(N)(=O)=O)cc3)n2)c(Cl)[nH]1
study.target: MDA-MB-468 breast
group: active

--- query ---
I would be grateful if you could indicate the recorded call for CCCCCCOC(=O)c1cc(-c2ccc(F)cc2)nc2ccccc12 . inactive

Values compiled from PubChem BioAssay (NCI).
